System: KM12 colon
assay info: NCI tumour cell line growth inhibition, 48 h; in the data active = GI50 below about 0.43 µM; inactive = the rest
Classes used: active, inactive

INSERT INTO assay_data (compound, target_system, group_label) VALUES
  ('CCCCCCCC/C=C/CCCCCCCC1=NC(C)(C)CN1CCO', 'KM12 colon', 'inactive'),
  ('CCN(Cc1cccc(Cl)c1)c1ccc(CO)c(Cl)c1', 'KM12 colon', 'inactive'),
  ('COc1ccc(/C=C2/SC(Nc3nc(-c4nc(NC5=NC(=O)/C(=C\c6ccc(OC)cc6)S5)sc4C)c(C)s3)=NC2=O)cc1', 'KM12 colon', 'active'),
  ('N#Cc1cnc(Nc2cc(NC[C@H]3CNCCO3)c(C(F)(F)F)cn2)cn1', 'KM12 colon', 'inactive'),
  ('CC(=O)[CH-]C(=O)c1ccccc1.CC(=O)[CH-]C(=O)c1ccccc1.CC(=O)[CH-]C(=O)c1ccccc1.[Nd+3].[OH3+]', 'KM12 colon', 'inactive'),
  ('c1ccc(CNCCN(CCNCc2ccccn2)Cc2ccc3ccccc3c2)nc1', 'KM12 colon', 'inactive'),
  ('O=C(NCC1CCCO1)c1ccc(NC2=C(Cl)C(=O)N(Cc3ccccc3)C2=O)cc1 (centres undefined)', 'KM12 colon', 'inactive'),
  ('O=[N+]([O-])c1cc([N+](=O)[O-])c(Nn2c3ccccc3c3ccccc32)c([N+](=O)[O-])c1', 'KM12 colon', 'active'),
  ('CCCCCCCCCCCCOC1C(CNC(=O)C2OC3OC(C)(C)OC3C2NC(=O)CN2CCN(c3ccc(OC)cc3)CC2)OC2OC(C)(C)OC21 (centres undefined)', 'KM12 colon', 'inactive'),
  ('CC(=O)C1=C(O)C=C2Oc3c(C(=O)/C=C/c4cc(Cl)cc(Cl)c4)c(O)c(C)c(O)c3[C@]2(C)C1=O', 'KM12 colon', 'inactive'),
  ('CCNC(=O)Oc1ccc(/C(=C(/C)Cc2ccc(OC)cc2)c2ccc(OCCN(CC)CC)cc2)cc1', 'KM12 colon', 'inactive'),
  ('CC(=O)N1N=C(c2ccc(Nc3nc(Nc4ccc(F)cc4)nc(Nc4ccc(F)cc4)n3)cc2)CC1c1ccc(N(C)C)cc1 (centres undefined)', 'KM12 colon', 'inactive'),
  ('Clc1ccccc1-c1nnc2c(Cc3ccccc3)nc3ccccc3n12', 'KM12 colon', 'inactive'),
  ('C=CCC(N[C@@H](CO)c1ccccc1)c1cn(C(=O)OCC)c2ccccc12 (some centres undefined)', 'KM12 colon', 'inactive'),
  ('CCOc1ccn(-c2ccc(F)cc2)c(=O)c1C(=O)Nc1ccc(Oc2ccnc(N)c2Cl)c(F)c1', 'KM12 colon', 'active'),
  ('CC(=O)c1cc(C(=O)c2ccc3c(c2)Sc2ccccc2N3)n2ccccc12', 'KM12 colon', 'active'),
  ('Cc1cc(Nc2nc(N[C@@H](C)c3ncc(F)cn3)ncc2Cl)n[nH]1', 'KM12 colon', 'active'),
  ('Oc1c(Cl)cc(Cl)c2ccc(Cn3cc(-c4ccc(C(F)(F)F)cc4)nn3)nc12', 'KM12 colon', 'inactive'),
  ('COc1cccc(Nc2nc3ccccc3c3occc23)c1', 'KM12 colon', 'inactive');

###

Test system: OVCAR-4 ovarian
assay info: NCI tumour cell line growth inhibition, 48 h; in the data active = GI50 below about 0.43 µM; inactive = the rest
Outcome codes: t for active, f for inactive

INSERT INTO measurements (compound, group_label) VALUES
  ('CCNC(=O)Oc1ccc(/C(=C(/C)Cc2ccc(OC)cc2)c2ccc(OCCN(CC)CC)cc2)cc1', 'f'),
  ('O=C(NCC1CCCO1)c1ccc(NC2=C(Cl)C(=O)N(Cc3ccccc3)C2=O)cc1 (stereo not given)', 'f'),
  ('COc1ccc([C@@]23Oc4cc(OC)cc(OC)c4[C@]2(O)[C@H](O)[C@H](C(N)=O)[C@H]3c2ccccc2)cc1', 't'),
  ('CC(=O)[C@H]1CCC2[C@@H]3CC=C4C[C@@H]([O-])CC[C@]4(C)C3CC[C@@]21C.CC(=O)[C@H]1CCC2[C@@H]3CC=C4C[C@@H]([O-])CC[C@]4(C)C3CC[C@@]21C.CC(=O)[CH-]C(=O)c1ccccc1.CC(=O)[CH-]C(=O)c1ccccc1.Cl.[Ti+4] (stereo not given in full)', 'f'),
  ('C/C(=C(\c1ccc(OCCN2CCCCCC2)cc1)c1ccc(OC(=O)c2ccccc2)cc1)c1ccc(Cl)cc1', 'f');
